- Organism: Rattus norvegicus
- Test Summary: DrugMatrix - Regimen: Daily Repeat
- Format: toxicity, organism-based, Sprague-Dawley
- Design: regimen Daily Repeat, gender Male, age 6-8 weeks
- Conditions: in vivo, po, 1500 mg/kg, 72 h, tissue Blood, route oral GAVAGE, dose level High, time 3 day, vehicle .5 % CMC
Measured Property: BASOPHIL

Which measured BASOPHIL value corresponds to COc1cc(/C=C/C(=O)O)ccc1O [FERULATE] ?
0%

I am curious: what BASOPHIL value has been reported for COc1ccc(Cl)cc1C(=O)NCCc1ccc(S(=O)(=O)NC(=O)NC2CCCCC2)cc1 [GLYBURIDE] ?
0%

Given the compound O=C(O)CCc1nc(-c2ccccc2)c(-c2ccccc2)o1 , what is its reported BASOPHIL?
0%

Given CC[C@H]1OC(=O)[C@H](C)[C@@H](O[C@H]2C[C@@](C)(OC)[C@@H](O)[C@H](C)O2)[C@H](C)[C@@H](O[C@@H]2O[C@H](C)C[C@H](N(C)C)[C@H]2O)[C@](C)(O)C[C@@H](C)C(=O)[C@H](C)[C@@H](O)[C@]1(C)O , state its recorded BASOPHIL.
0%

Record request: BASOPHIL value, item Cc1ccc(S(=O)(=O)NC(=O)NN2CCCCCC2)cc1 [TOLAZAMIDE]
0%

====

- Species: Rattus norvegicus
- Test Summary: DrugMatrix - Regimen: Daily Repeat
- Type: toxicity, organism-based, Sprague-Dawley
- Design: regimen Daily Repeat, gender Male, age 6-8 weeks
- Conditions: in vivo, po, 0 mg/kg, 72 h, tissue Blood, route oral GAVAGE, dose level Control, time 3 day, […]
Consider the following molecules; for each one, report its PLATELET COUNT.
Use x10E3/uL as the unit, but write only the number.

Give its PLATELET COUNT value. Item: c1ccc2c(c1)Nc1ccccc1S2
1082.83

What value of PLATELET COUNT has been reported for the following molecule? CS(=O)(=O)c1ccc(C2=C(c3ccccc3)C(=O)OC2)cc1
1082.83

Dear colleague, I am looking for the recorded PLATELET COUNT of the following molecule: CC#C[C@]1(O)CC[C@H]2[C@@H]3CCC4=CC(=O)CCC4=C3[C@@H](c3ccc(N(C)C)cc3)C[C@@]21C
1084

Given the entry Oc1ncnc2[nH]ncc12 , report its measured PLATELET COUNT.
1329.67

====

- Species: Rattus norvegicus
- Test Summary: DrugMatrix - Regimen: Daily Repeat
- Assay type: toxicity, organism-based, Sprague-Dawley
- Parameters: regimen Daily Repeat, gender Male, age 6-8 weeks
- Conditions: in vivo, po, 0 mg/kg, 120 h, tissue Blood, route oral GAVAGE, dose level Control, time 5 day, […]
Mark no (0) for MONOCYTE values under 1%, and yes (1) for everything at or above.

Is reported MONOCYTE greater than or equal to 1% here: Cc1cccc(C)c1NC(=O)C(C)N (stereo not drawn) [TOCAINIDE]
yes (1)

Answer whether MONOCYTE of CC#C[C@]1(O)CC[C@H]2[C@@H]3CCC4=CC(=O)CCC4=C3[C@@H](c3ccc(N(C)C)cc3)C[C@@]21C is greater than or equal to 1%.
yes (1)

I'd appreciate it if you could say whether CCOC(=O)C1=C(C)NC(C)=C(C(=O)OCC)C1c1ccccc1/C=C/C(=O)OC(C)(C)C has MONOCYTE at least equal to 1%.
no (0)

Is reported MONOCYTE greater than or equal to 1% here: CCC(C)(C)C(=O)O[C@H]1C[C@@H](C)C=C2C=C[C@H](C)[C@H](CC[C@@H]3C[C@@H](O)CC(=O)O3)[C@H]21
yes (1)

Check the entry CC(C)(c1ccc(O)cc1)c1ccc(O)cc1 : does MONOCYTE equal or exceed 1%?
no (0)

Confirm if MONOCYTE reported for the compound CO[C@H]1O[C@@H]2O[C@@]3(C)CC[C@H]4[C@H](C)CC[C@@H]([C@H]1C)[C@@]24OO3 is 1% or above.
yes (1)

Is MONOCYTE for CS(=O)(=O)c1ccc(C2=C(c3ccccc3)C(=O)OC2)cc1 at or above 1%?
no (0)

I'd appreciate it if you could say whether c1ccc2c(c1)Nc1ccccc1S2 has MONOCYTE at least equal to 1%.
no (0)

Could you verify whether the entry O=C(Nc1ccc(Cl)c(Cl)c1)c1cc(Cl)cc(Cl)c1O [3,3',4',5-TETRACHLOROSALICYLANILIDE] shows MONOCYTE of no less than 1%?
no (0)
